Value source: PubChem BioAssay AID1259415

Assay: qHTS Assay for inhibitors of the human cytomegalovirus (HCMV); also: % is scaled to controls: 0 for no effect and ±100 for the full control effect
Conditions: HFF cells, HCMV-luciferase reporter, 72 h; at 57.5 µM; active compounds read low
The campaign covered roughly 410,000 compounds. About 18,000 (4.4%) were called active. Not shown: some 7% with an inconclusive outcome. The sample as a whole holds a higher share of actives than the screen did.
Answer each item with its documented activity change, negative = inhibition.
Numbers only here, please. The scale is %.

Asked: I am curious: what activity change, negative = inhibition value has been reported for CCOc1ccc(OCC)c(Nc2nc3ccccc3n3nnnc23)c1 ?
Given back: -1.18

Asked: Follow-up entry: CCOc1ccc(CNC(=O)CCc2c(C)nn(-c3ccc(N4CCCCC4)nn3)c2C)cc1
Given back: 17.5

Asked: Follow-up entry: Cc1no[n+]([O-])c1COc1ccccc1/C=C1\NC(=S)NC1=O
Given back: -83.4

----------
Test: qHTS Assay for inhibitors of the human cytomegalovirus (HCMV); also: % is scaled to controls: 0 for no effect and ±100 for the full control effect
Conditions: HFF cells, HCMV-luciferase reporter, 72 h; at 57.5 µM
In all, about 410,000 compounds went through this assay and about 18,000 (4.4%) were called active. Inconclusive results (about 7%) are left out. Rule as the data show it: active = activity change below about -60%; inconclusive = no clear call, values can overlap the other calls; inactive = above about -39%. The sample holds actives, similar compounds and a random draw of the others, so the mix is not that of the screen.
Select the matching outcome among active, inactive

Asked: Kindly provide the recorded test outcome for the following molecule: COc1ccc(C(C[N+](=O)[O-])n2nc(C)cc2C)cc1 (stereo unspecified)
Given back: inactive

Asked: Follow-up entry: CCc1ccc(C2=CC(=O)CC(C)(C)C2=O)cc1
Given back: inactive

Asked: Follow-up entry: Cc1ccc(Nc2nc3ccccc3nc2-n2nc(C)cc2C)c(Cl)c1
Given back: inactive

Asked: Follow-up entry: COc1ccc(/C=C/c2noc(-c3ccccc3O)n2)cc1OC
Given back: inactive

Asked: Follow-up entry: Cc1cc(C)n(-c2nnc(N3CCN(c4ccccc4)CC3)nn2)n1
Given back: inactive

Asked: Follow-up entry: COc1ccccc1/C=N\Nc1cc(C)nc(-n2nc(C)cc2C)n1
Given back: active

----------
Assay: qHTS Assay for inhibitors of the human cytomegalovirus (HCMV); also: % is scaled to controls: 0 for no effect and ±100 for the full control effect
Details: HFF cells, HCMV-luciferase reporter, 72 h; at 57.5 µM; active compounds read low
Screen size: about 410,000 compounds; about 18,000 (4.4%) were called active. Another 7% or so got no clear call; they are omitted. Only a selection was taken, and actives are over-represented in it overall.
MEASURED ENDPOINT: activity change, negative = inhibition (%)
Numbers only here, please. The scale is %.

Asked: I am curious: what activity change, negative = inhibition value has been reported for COC(=O)c1ccc(Cn2c(SCC(=O)N(C)c3ccccc3)nc3ccccc32)cc1 ?
Given back: -6.59

Asked: Follow-up entry: C=CCC1(C#N)C(=S)NC(C)=C(C(=O)OCC)C1c1ccccc1 (stereo not drawn)
Given back: 21.2

Asked: Follow-up entry: COc1ccc(-n2nnc(-c3nsc(NC(=O)c4ccc(C)c(C)c4)n3)c2C)cc1Cl
Given back: -9.03

Asked: Follow-up entry: O=C(COc1cccnc1[N+](=O)[O-])Nc1ccc(Cl)cc1F
Given back: 9.57

Asked: Follow-up entry: COc1ccc(-c2cc(C(=O)Nc3sc4c(c3C(N)=O)CCCC4)no2)cc1
Given back: 21.3

Asked: Follow-up entry: CCOC(=O)C1=C(C)NC(C)=C(C(=O)OCC)C1C1=COCCO1
Given back: 42.6

Asked: Follow-up entry: COc1cccc(/C=C2\Sc3ccc(C(=O)NCC4CCCO4)cc3N(C)C2=O)c1 (stereo not drawn)
Given back: -14.4

Asked: Follow-up entry: CCCN(CC(=O)Nc1ccccc1C)C(=O)c1cc(=O)[nH]c2ccccc12
Given back: 42.9

----------
Assay: qHTS Assay for inhibitors of the human cytomegalovirus (HCMV); also: % is scaled to controls: 0 for no effect and ±100 for the full control effect
Details: HFF cells, HCMV-luciferase reporter, 72 h; at 57.5 µM; active compounds read low
The whole screen tested about 410,000 compounds, of which about 18,000 (4.4%) were called active. Roughly 7% stayed inconclusive and do not appear here. The list comes from a sample in which actives are over-represented; it also holds close analogues and randomly drawn compounds.
MEASURED ENDPOINT: activity change, negative = inhibition (%)
Numbers only here, please. The scale is %.

Asked: I am curious: what activity change, negative = inhibition value has been reported for COc1ccc(OC)c(NC(=O)C2(C)CCN2C(=O)Cc2ccccc2)c1 (stereo not given) ?
Given back: -33.9

Asked: Follow-up entry: COc1ccc2c(Sc3ccc(C)cc3)c(C(=O)NC(C)c3ccccc3)[nH]c2c1 (stereo not given)
Given back: -4.72

Asked: Follow-up entry: Cc1cccc(OCC(=O)Nc2ccc(C(=O)O)cc2NC(=O)COc2cccc(C)c2)c1
Given back: -3.05

Asked: Follow-up entry: Cc1ccc(OCC(=O)Nc2ccc(C(=O)O)cc2NC(=O)COc2ccc(C)c(C)c2)cc1C
Given back: -98.3

Asked: Follow-up entry: CC(C)(C)c1ccc(S(=O)(=O)Nc2ccc(O)c(Sc3nc4ccccc4s3)c2)cc1
Given back: -13.2

Asked: Follow-up entry: Cc1nc(-c2ccc([N+](=O)[O-])cc2)c(-c2ccccc2)o1
Given back: -90.1

Asked: Follow-up entry: CCCc1nc2scc(-c3ccc(C)cc3)c2c(=O)n1N
Given back: -13.5

Asked: Follow-up entry: OCCN1CCN(C(=S)c2ccc(-c3ccccc3)cc2)CC1
Given back: -79.4

Asked: Follow-up entry: Cc1ccc(-c2csc(NC3OC(=O)c4ccccc43)n2)cc1 (stereo not given)
Given back: 0

Asked: Follow-up entry: CC(C)N(Cc1ccccc1)C(=O)COC(=O)c1ccccc1SCC(=O)N1CCCC1
Given back: -8.52

Asked: Follow-up entry: CC1CN(C(=S)Nc2ccc(S(N)(=O)=O)cc2)CC(C)O1 (stereo not given)
Given back: 70.7

Asked: Follow-up entry: CCOC(=O)C1CCN(C(=O)COc2cccc3ccccc23)CC1
Given back: -33.6

Asked: Follow-up entry: Cc1ccc(CNC(=O)Cn2c(=O)ccc3cc(S(=O)(=O)N4CCCC4)ccc32)cc1
Given back: -10.3

Asked: Follow-up entry: CCOc1ccc(NC(=O)C2CCN(S(=O)(=O)c3cc(-c4noc(C)n4)ccc3C)CC2)cc1
Given back: 10.9

Asked: Follow-up entry: CCN1/C(=C\c2ccc3ccccc3[n+]2CC)Sc2cc(C)ccc21
Given back: -99.8

Asked: Follow-up entry: NS(=O)(=O)c1ccc(CCNC(=O)CCCCCn2c(=O)[nH]c3ccccc3c2=O)cc1
Given back: 34

Asked: Follow-up entry: COc1ccc2c(c1OC)C(=O)OC2Nc1nc(-c2ccccc2)cs1 (stereo not given)
Given back: -104

Asked: Follow-up entry: COc1cccc(C(NC(C)=O)c2nc(-c3ccccc3OC)cs2)c1 (stereo not given)
Given back: 28.9

Asked: Follow-up entry: Cc1cc(NS(=O)(=O)c2ccc(NC(=O)c3ccccc3C)cc2)nc(C)n1
Given back: -5.8

Asked: Follow-up entry: CCCCc1cc(=O)oc2c(C)c(OCC(=O)N3CCC(C(N)=O)CC3)ccc12
Given back: -17.9

Asked: Follow-up entry: Cc1ccc(C)c(Cn2c(C)c(CNCc3ccc(F)cc3)c(C(=O)O)c2C)c1
Given back: 18.1

Asked: Follow-up entry: O=c1c2ccccc2[nH]c(=S)n1-c1cccc(Cl)c1
Given back: -21.9

Asked: Follow-up entry: Cc1ccc(S(=O)(=O)c2nnn3c2nc(N2CCN(c4ccccc4F)CC2)c2cc(Cl)ccc23)cc1C
Given back: 11.3

Asked: Follow-up entry: Cc1ccc(OCC(=O)Nc2cccc3c2CCCC3)cc1C
Given back: -12.3

Asked: Follow-up entry: O=C(CN(Cc1ccccc1)C(=O)CCC(=O)Nc1ccccn1)NCCc1ccccc1
Given back: 18.2

----------
Experiment: qHTS Assay for inhibitors of the human cytomegalovirus (HCMV); also: % is scaled to controls: 0 for no effect and ±100 for the full control effect
Details: HFF cells, HCMV-luciferase reporter, 72 h; at 57.5 µM
The whole screen tested about 410,000 compounds, of which about 18,000 (4.4%) were called active. Inconclusive results (about 7%) are left out. Rule as the data show it: active = activity change below about -60%; inconclusive = no clear call, values can overlap the other calls; inactive = above about -39%. The entries come from a sample that favours actives as a whole.
Select the matching outcome among T (active), F (inactive)

Asked: Kindly provide the recorded test outcome for the following compound: O=C(CCS(=O)(=O)c1ccccc1)N(Cc1cccnc1)c1nc2c(F)cccc2s1
Given back: F

Asked: Follow-up entry: O=C(COC(=O)Cc1ccccc1F)NCCc1ccccc1
Given back: F

Asked: Follow-up entry: Cc1ccc2nc(COc3cccc(NC(=O)c4cccc(Cl)c4)c3)cc(=O)n2c1
Given back: F

Asked: Follow-up entry: COc1ccc(NC(=O)CSc2nccn2Cc2ccc3c(c2)OCO3)cc1
Given back: F

Asked: Follow-up entry: COc1ccc(NC(=O)CCCN2C(=O)CCn3nc(-c4cn(C)c5ccccc45)cc32)cc1OC
Given back: F

Asked: Follow-up entry: Cc1ccc(S(=O)(=O)N2C[C@H]3n4c(=O)ccc(=O)n4C[C@H](OC(=O)NC4CCCC4)[C@@]3(O)C2)cc1
Given back: F

Asked: Follow-up entry: Cc1ccc(S(=O)(=O)N(C)CC(=O)N2CCc3ccccc32)cc1
Given back: F

Asked: Follow-up entry: Clc1ccc2c(c1)C1=C(C(c3ccncc3)O2)C(c2ccc(Br)cc2)n2ncnc2N1 (stereo not given)
Given back: T

Asked: Follow-up entry: O=C(COC(=O)C1(c2ccc(F)cc2)CCCC1)N1CCNC1=O
Given back: F

Asked: Follow-up entry: COc1ccc(S(=O)(=O)N2CCN(c3ccc(F)cc3)CC2)cc1-c1noc(C)n1
Given back: F

Asked: Follow-up entry: CC1CCN(c2ccc(S(=O)(=O)Nc3cc(C(=O)O)cc(C(=O)O)c3)cc2[N+](=O)[O-])CC1
Given back: F

Asked: Follow-up entry: C#CCN(C[C@H]1[C@H](OC(=O)NC2CCCC2)[C@H](OC(=O)NC2CCCC2)C[C@H]2C(=O)N(c3ccccc3)C(=O)[C@@H]12)S(=O)(=O)c1ccc(C)cc1
Given back: F

Asked: Follow-up entry: C#CCN(C[C@@H]1[C@@H](OC(=O)NC2CC2)[C@@H](OC(=O)NC2CC2)Cn2c(=O)ccc(=O)n21)S(=O)(=O)c1ccc(C)cc1
Given back: T

Asked: Follow-up entry: Cc1ccc(C(CC(=O)O)Nc2nc(N3CCCCC3)nc(N3CCCCC3)n2)cc1 (stereo not given)
Given back: F

Asked: Follow-up entry: N=c1n(CCc2ccccc2)c2ccccc2n1Cc1ccccc1F
Given back: T

Asked: Follow-up entry: CC1CCCN(C(=O)Cn2c(=O)oc3ccccc32)C1 (stereo not given)
Given back: F

Asked: Follow-up entry: C[C@H]1Cn2cnc(C(=O)N[C@H](C)c3ccccc3)c2C(=O)N1
Given back: F

Asked: Follow-up entry: NS(=O)(=O)c1ccc(CCNC(=O)CN2C(=O)c3ccccc3S2(=O)=O)cc1
Given back: F

Asked: Follow-up entry: COc1cc(Br)cc2cc(S(=O)(=O)c3ccccc3)c(=O)oc12
Given back: F

Asked: Follow-up entry: Cc1ccc(Cl)cc1N(C)C(=O)Cn1nc(Cc2cccnc2)c2ccccc2c1=O
Given back: T
